tgt: human ether-à-go-go-related gene (hERG) potassium channel (human, UniProt Q12809)
Sequence (Q12809 whole entry, looked up): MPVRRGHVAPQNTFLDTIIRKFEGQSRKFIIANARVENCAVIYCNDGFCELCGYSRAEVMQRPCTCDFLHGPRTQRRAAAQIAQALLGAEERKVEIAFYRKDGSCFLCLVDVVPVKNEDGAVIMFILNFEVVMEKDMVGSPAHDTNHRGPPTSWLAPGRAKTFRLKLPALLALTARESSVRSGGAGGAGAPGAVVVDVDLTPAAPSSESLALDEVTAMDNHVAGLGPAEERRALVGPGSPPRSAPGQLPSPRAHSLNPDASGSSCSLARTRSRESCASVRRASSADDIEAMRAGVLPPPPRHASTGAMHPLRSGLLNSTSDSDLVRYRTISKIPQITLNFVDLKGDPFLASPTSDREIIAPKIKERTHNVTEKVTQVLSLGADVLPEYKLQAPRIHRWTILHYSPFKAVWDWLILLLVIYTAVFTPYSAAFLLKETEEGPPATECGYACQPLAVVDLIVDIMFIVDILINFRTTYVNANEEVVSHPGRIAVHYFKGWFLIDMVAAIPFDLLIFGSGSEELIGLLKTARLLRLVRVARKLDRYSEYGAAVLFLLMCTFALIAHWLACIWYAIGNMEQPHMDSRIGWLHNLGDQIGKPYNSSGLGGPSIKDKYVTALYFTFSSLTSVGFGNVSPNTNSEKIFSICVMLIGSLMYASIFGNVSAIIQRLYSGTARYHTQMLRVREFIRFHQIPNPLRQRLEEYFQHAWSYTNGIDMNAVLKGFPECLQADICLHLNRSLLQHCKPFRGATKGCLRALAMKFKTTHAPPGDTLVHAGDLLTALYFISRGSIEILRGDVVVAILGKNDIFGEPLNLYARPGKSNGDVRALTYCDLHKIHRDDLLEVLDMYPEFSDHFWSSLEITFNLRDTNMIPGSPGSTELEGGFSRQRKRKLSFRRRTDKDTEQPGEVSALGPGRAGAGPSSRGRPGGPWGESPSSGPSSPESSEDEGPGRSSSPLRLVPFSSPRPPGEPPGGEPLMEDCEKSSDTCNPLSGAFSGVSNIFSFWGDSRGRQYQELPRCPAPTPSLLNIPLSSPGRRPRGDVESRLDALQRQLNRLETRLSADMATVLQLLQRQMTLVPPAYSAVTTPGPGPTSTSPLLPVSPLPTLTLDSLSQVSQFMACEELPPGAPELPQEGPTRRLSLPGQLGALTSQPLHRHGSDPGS
experiment: primary screen, population patch clamp on CHO cells stably expressing hERG; higher = less effect of the substance;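 further: peak tail current of the secondary pulse compared with the same well before compound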
The campaign covered roughly 310,000 compounds. About 14,000 (4.5%) showed an effect of 50% or more. The effect is printed as a negative number. The sample holds strong results, similar compounds and a random draw of the others, so the mix is not that of the screen.
List of hERG current change (%, negative = inhibition) at 10uM values.
experimentalEndpoint: hERG current change (%, negative = inhibition) at 10uM (%)

• COc1ccc2c(c1)c(C(C)=O)c(C)n2CCc1ccc(OC)c(OC)c1 = -6.52
• COc1ccc(Cc2nnc(NC(=O)C(C)C)s2)cc1 = 11.2
• COc1cc(OC)c2c(C)cc(=O)oc2c1C(CCN1CCOCC1)c1ccc(N(C)C)cc1 (stereo not shown) = -28.5
• COc1cc(C(CCN2CCOCC2)c2c(OC)cc(OC)c3c(C)cc(=O)oc23)cc(OC)c1OC (stereo not shown) = -79.3
• O=C(Nc1ccc(-c2nc3ccccc3[nH]2)cc1)c1ccc2c(c1)OCO2 = 6.85
• O=C1NC2(CCCCCC2)C(=O)N1Cc1ccc(Br)cc1 = 4.06
• CCCNC(=O)c1ccccc1N1CCN(CCCCN2C(=O)C3CCCCN3C2=O)CC1.Cl.O (stereo not shown) = -33.5
• O=C(CSCc1ccco1)Nc1cc(C(F)(F)F)ccc1N1CCOCC1 = -49
• COc1cc(O)c(C(CCN2CCOCC2)c2cc(OC)c(OC)c(OC)c2)c(OC)c1 (stereo not shown) = 8.02
• COc1ccc(C(CC(=O)N2CCOCC2)c2c(OC)cc(OC)c3c(-c4ccccc4)cc(=O)oc23)cc1 (stereo not shown) = 12
• Cc1ccccc1Cn1nc(C)c(NC(=O)c2nc3n(n2)C(C(F)F)CC(C)N3)c1C (stereo not shown) = 0.0862
• Cc1ccccc1N1CCN(CCCCN2C(=O)C3CCCN3C2=O)CC1.Cl.O (stereo not shown) = -65.4
• c1ccc(-c2nc(C3CCCCC3)no2)cc1 = -0.00972
• COc1ccccc1N1CCN(CCN2C(=O)C3CCCCN3C2=O)CC1 (stereo not shown) = 4.39
• COc1cc(OC)c2c(-c3ccccc3)cc(=O)oc2c1C(CCN1CCCC(C)C1)c1ccc(N(C)C)cc1 (stereo not shown) = -30
• COc1cc(OC)c2c(C)cc(=O)oc2c1C(CCN1CCOCC1)c1ccc2c(c1)OCO2 (stereo not shown) = -68.4
• O=C1CN(C(=O)c2ccc(Br)o2)C(c2ccccc2)c2cc(Br)ccc2N1 (stereo not shown) = -23.6
• O=C(NNC(=O)C1COc2ccccc2O1)c1ccccc1 (stereo not shown) = -1.85
• COc1cc(OC)c2c(C)cc(=O)oc2c1C(CCN1CCN(c2ccccc2)CC1)c1ccc2c(c1)OCO2 (stereo not shown) = -11.1
